- TEST_SUMMARY: qHTS of small molecules that selectively kill Giardia lamblia: Hit Validation. Note: potency is the fitted concentration of half-maximal effect.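 Note: viability measured as ATP content by luminescence so killing lowers signal; trophozoites exposed to compounds for 48 h anaerobically at 37 °C; nearly all actives have a fitted effect of over 65% in size.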
- SETUP_CONDITIONS: Giardia lamblia trophozoite viability, dose-response; series mostly up to 38.3 µM
Among all 1,300 compounds or so, about 1,000 (77%) were called active. Roughly 7% stayed inconclusive and do not appear here. The set was probably picked from earlier hits. The list shows a part of the results.
ASSAY_METRIC: Potency

Answered cases to consult:
COMPOUND: COc1ccc2c3n([n+]([O-])c2c1)CCN=C3c1cc(Cl)c(N)c(Cl)c1
REPORTED_MEASUREMENT: 183 nM (active)
--
COMPOUND: Cc1ncc([N+](=O)[O-])n1CCOC(=O)NC(Nc1ccc(F)cc1)C(Cl)(Cl)Cl (stereo not drawn)
REPORTED_MEASUREMENT: 460 nM (active)
--
COMPOUND: CN1CCN(c2ccc(NC(=O)c3ccc([N+](=O)[O-])o3)cc2Cl)CC1
REPORTED_MEASUREMENT: 1300 nM (active)
--
COMPOUND: O=C1c2cc(F)ccc2-n2c1nc1ccccc1c2=O
REPORTED_MEASUREMENT: 1830 nM (active)
--
COMPOUND: COc1cc(-c2noc(C)c2C(=O)NCC[C@@H]2CCCN2C)cc(OC)c1OC
REPORTED_MEASUREMENT: inactive
--
COMPOUND: CC[C@]1(C(=O)OC)[C@H]2C(=O)N(C)C(=O)[C@H]2[C@H]2CN(C)C(=NC)N21
REPORTED_MEASUREMENT: inactive
--
COMPOUND: N#Cc1sc(NCc2cccc(Cl)c2)nc1Cl
REPORTED_MEASUREMENT: 23100 nM (active)
--
COMPOUND: COc1ccc2c3n([n+]([O-])c2c1)CCN=C3c1ccc(Cl)cc1
REPORTED_MEASUREMENT: 579 nM (active)

I'm hoping you can list Potency for every compound here, please.
1. Cn1c(=O)c(=O)n(C)c2cc([N+](=O)[O-])c(N3CCOCC3)cc21
2. O=c1cccc(-c2ccccc2)[nH]1
3. CCC(=O)Nc1nc(-c2cc([N+](=O)[O-])cs2)cs1
4. CCCC(=O)N1CCN(c2ccc(NC(=O)c3ccc([N+](=O)[O-])o3)cc2)CC1
5. C[C@H]1CN=C(N(C)C)N1CCC1CCCC1

1. 4100 nM (active)
2. inactive
3. 1300 nM (active)
4. 729 nM (active)
5. inactive
